- ASSAY_NAME: solubility in water
- Format: physicochemical
VALUE_TYPE: solubility

Query string: Sample N[C@@H](CC(=O)N1CCn2c(nnc2C(F)(F)F)C1)Cc1cc(F)c(F)cc1F [monohydrate] — what was its solubility?
Result string: ~72 mg/mL

Recorded values, source patent US7326708B2.
